target_or_test_system: TRIP8b-HCN1c40 (Homo sapiens (Human), UniProt Q8IYB4)
Sequence (Q8IYB4 265-626): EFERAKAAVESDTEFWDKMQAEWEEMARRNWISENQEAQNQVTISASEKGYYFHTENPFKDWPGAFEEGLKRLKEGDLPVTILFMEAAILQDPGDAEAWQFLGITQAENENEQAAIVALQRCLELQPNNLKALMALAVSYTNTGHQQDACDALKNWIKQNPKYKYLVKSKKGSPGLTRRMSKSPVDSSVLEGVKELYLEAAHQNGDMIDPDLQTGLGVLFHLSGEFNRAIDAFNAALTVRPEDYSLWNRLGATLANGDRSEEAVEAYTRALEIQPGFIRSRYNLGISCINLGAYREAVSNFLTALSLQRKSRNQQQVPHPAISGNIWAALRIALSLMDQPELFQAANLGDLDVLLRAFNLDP
method: TRIP8b-HCN1c40 AlphaScreen assay
Type: binding
condition: read-out: TRIP8b-HCN1c40 Alphascreen IC50
measured_property: IC50 (nM)

P = CN1CCN(Cc2cc(-c3ccc(Cl)cc3)ccc2OCC(=O)NCc2ccc(Cl)cc2)CC1 [NUCC-0201712]
Q = CN1CCN(Cc2ccc(-c3ccc(F)c(C(F)(F)F)c3)cc2OCC(=O)NCc2ccc(Cl)cc2)CC1
R = CNC(=O)c1ccc(NC(=O)COc2ccc(-c3cccc(C)c3)cc2CN2CC[C@H](N)C2)cc1
# descending IC50 order for the listed compounds # list labels per requested ordering
R, P, Q
